# Test system: SK-MEL-5
# procedure.text: NCI tumour cell line growth inhibition, 48 h
Calls of active or inactive are those of the source. Cut-off read from the data, not from the text of the source: active = GI50 up to about 1.1 µM and inactive = higher.
Write down one outcome, taken from yes (active), no (inactive)

Example cases with answers are listed next.
1. C/C(=N\c1c2ccccc2nc2ccccc12)N(C)C :: no
2. COc1c(C(=O)/C(=N/Nc2ccccc2)C(C)=O)c(O)c(OC)c2occc12 :: no
3. Clc1ccc(COc2ccccc2/C=N/c2c(-c3ccco3)nc3ccccn23)c(Cl)c1 :: no

Query: State the result this test recorded for "C/C(=N/NC(=S)N(C)CCc1ccccn1)c1cnccn1" .
Result: yes

Query: Can you handle "COc1ccc(-c2c(-c3ccc(OC)cc3)n3c(=O)n(C)c(=O)n23)cc1" next?
Result: no

Query: Can you handle "COc1cc2c3c(c1)CCCN3CCC2" next?
Result: no

Query: Can you handle CC1OC2OC3C(OCC(O)C3O)OC(=O)[C@]34CCC(C)(C)CC3C3=CCC5[C@@]6(C)C[C@H](O)[C@H](OC7OC(CO)C(O)C(O)C7OC7OCC(OC(=O)CC(C)(O)CC(=O)OC1C(OC1OC(CO)C(O)C(O)C1O)C2O)C(O)C7O)[C@@](C)(CO)C6CC[C@@]5(C)[C@]3(C)CC4 (stereo partly drawn) next?
Result: no

Query: Can you handle "CC(=O)/C(=C/N1C(=O)CC(=O)NC1=S)C(=O)Nc1ccccc1C" next?
Result: no

Query: Can you handle "Cc1cc(C)cc(Nc2cc(O)nc(O)n2)c1" next?
Result: no

Query: Can you handle CC(=O)C1(O)CC2(c3ccccc3)C(=O)C1(c1ccccc1)C(c1ccccc1)=C2c1ccccc1 (stereo not drawn) next?
Result: no

Query: Can you handle "CCOC(=O)c1ccc(/N=c2\oc3ccc(OC)cc3cc2-c2nc3ccccc3[nH]2)cc1" next?
Result: no

====

# System: HOP-62
# procedure.text: NCI tumour cell line growth inhibition, 48 h
Calls of active or inactive are those of the source. Rule as the data show it: active = GI50 up to about 1.1 µM and inactive = higher.
measurement.name: GI50

# count of solved cases: 4
1. COc1c(C(=O)/C(=N/Nc2ccccc2)C(C)=O)c(O)c(OC)c2occc12 :: 97.5 µM (inactive)
2. CC1OC(O[C@H]2CC[C@]3(C)[C@H]4CC=C5[C@@H]6[C@@H](C)[C@H](C)CC[C@]6(C(=O)O)CC[C@@]5(C(=O)O)[C@]4(C)CC[C@H]3C2(C)C)C(O)C(O)C1O (stereo not given in full) :: > 75 µM (inactive)
3. CC(C)N1CN(C(C(=O)N[C@@H]2C(=O)N3C2SC(C)(C)C3C(=O)O)c2ccc(O)cc2)CSC1=S (stereo not given in full) :: > 100 µM (inactive)
4. COc1cc(C2C(Cl)C(=O)N2NC(=O)c2ccc(NC(C)=O)cc2)ccc1O (stereo not given) :: > 100 µM (inactive)

Next compound, GI50 to be filled in.
Query: Give the measured GI50 of "COc1cc(-c2cc(=O)c3cc4c(cc3[nH]2)OCO4)cc(OC)c1O" .
Result: > 10 µM (inactive)

====

# Test system: K562
# procedure.text: NCI tumour cell line growth inhibition, 48 h
Activity calls are given as the source filed them. No stated cut-off is given here; in the data, active = GI50 up to about 1.1 µM and inactive = higher.
Write down one outcome, taken from 1 for active, 0 for inactive

1. COc1c(C(=O)/C(=N/Nc2ccccc2)C(C)=O)c(O)c(OC)c2occc12 :: 0
2. Cc1ccnc2nc(-c3ccc4ccccc4c3)cc(O)c12 :: 1
3. N/C(=N\Nc1ccc(C(=O)O)cc1)c1cnccn1 :: 0
4. N#CCC(=O)N1CCCOCCC1 :: 0
5. N#Cc1c(N2CCCC2)nsc1NCc1ccccc1 :: 0

Query: State the result this test recorded for "N#Cc1cc(-c2nc3ccc(F)cc3s2)ccc1N" .
Result: 0

Query: Can you handle "Cc1cc(S(=O)(=O)[N-]/C(=N/S(=O)(=O)c2ccc(Cl)cc2)[n+]2ccc(N(C)C)cc2)c(SCC(=O)O)cc1Cl" next?
Result: 0

Query: Can you handle "O=[N+]([O-])c1cc(Br)cc2cc(Cl)cnc12" next?
Result: 0

Query: Can you handle COc1ccc(S(=O)(=O)NC(C)C(=O)O)cc1 (stereo unspecified) next?
Result: 0

Query: Can you handle c1cc2ccc1C1NCCCN1CCN1CCCNC1c1ccc(cc1)C1NCCCN1CCN1CCCNC21 (stereo unspecified) next?
Result: 0

Query: Can you handle "O=c1c2cccc3cccc(c4n1CCN=4)c32" next?
Result: 0

// data source = ChEMBL document CHEMBL1201862
